system: LXRb homodimer (NR concentration 270 nM); test: PBM binding z-score (relative to random genomic background probes); higher = stronger binding; sequences stand for … in GC…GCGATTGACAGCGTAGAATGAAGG
Please use the following PBM binding z-score ranges when assigning a class: lo: < -0.3; mid: ≥ -0.3 and < 0.3; hi: ≥ 0.3

INSERT INTO assay_data (polymer_sequence, assayed_system, group) VALUES
  ('CCTACTGGGCCATTCAGAGGTCATTGAGCATATG', 'LXRb homodimer (NR concentration 270 nM)', 'mid');

Turning now to a further record.
Incoming: Which of the defined bands does the recorded PBM binding z-score of CGTCCAAGGTCTGAGAGGTCAGTGAATGCCGAGT sit within?
Outgoing: lo

###

Measured PBM binding z-score values are reported for all entries that follow.
tested on: LXRa:RXRa (NR concentration 270 nM, RXRa partner concentration 90 nM); assay: PBM binding z-score (relative to random genomic background probes); higher = stronger binding; sequences stand for … in GC…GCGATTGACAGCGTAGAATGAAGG
Please reply with the number alone, leaving off any unit.

INSERT INTO measurements (polymer_sequence, observable, measured_result) VALUES
  ('CCTATTAGTTGACCATAAGGGAAACCGAAGCTCG', 'PBM binding z-score', 0.118),
  ('CATACAGGGTCAGCTTGGCCAGAGTAGGGACGGC', 'PBM binding z-score', 2.73),
  ('ATCGAAAGATCGAAGGTGAGTATACCCACCCGAA', 'PBM binding z-score', -0.167),
  ('TAGCCTAGGTCATTCAGGGCCCAGTATAGAAAGC', 'PBM binding z-score', 3.59),
  ('CGTCGAAGGTCAGAGAGGTCAGTGAATGCCGAGT', 'PBM binding z-score', 5.11),
  ('GATACAGGGTCAAGGCCTGAGTACGCGTATTGAT', 'PBM binding z-score', 3.94),
  ('GGAACGAGGGCATTCGGGTTGATAGCATGGCGAT', 'PBM binding z-score', 1.22),
  ('CCTACTGGGCCACAAAAGGTCATTGATTCAGTGA', 'PBM binding z-score', 5.83);

Incoming: # query: PBM binding z-score of entry TCTGCTAGGGCAGTTGGTCAGCTAACGAGCTGCC
Outgoing: -0.634

###

Measured PBM binding z-score values are reported for all entries that follow.
system: RXRa homodimer (NR concentration 180 nM); experiment: PBM binding z-score (relative to random genomic background probes); higher = stronger binding; sequences stand for … in GC…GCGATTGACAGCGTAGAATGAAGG
Please reply with the number alone, leaving off any unit.

INSERT INTO measurements (polymer_sequence, measured_result) VALUES
  ('CCGACTGGGGCAGAAAGGTTACCGTACCATCCGG', 1.84),
  ('TCATATAGGTAAATGCTAGGCGAAAGTCCGATCT', 0.556),
  ('CCTCGGAGGACAGAAGGTCAGTGCTGTCCGCTTT', 1.25),
  ('CTCGAAAGGTCGTGCTCAGGTGAGTATCCCAAAC', 4.66);

Incoming: # query: PBM binding z-score of entry TCATCTAGGTAATACAGGTGAAAGTCGGCATCTA
Outgoing: 0.959

Incoming: # query: PBM binding z-score of entry CCTGCTAGGTCAATGGTCAGCTAGAGCAGCTCGC
Outgoing: 2.19

Incoming: # query: PBM binding z-score of entry CCGAGTAGGTAATGGGGCATTCAGGCAACGGTGA
Outgoing: 0.0759

Incoming: # query: PBM binding z-score of entry TAGGCTAGGTCATGCGGGCCAGTATAGTGTCGGC
Outgoing: 3.14

Incoming: # query: PBM binding z-score of entry TCGAGTAAGTTAGGGGCATTCAGAATGGCGTCGA
Outgoing: 0.495

Incoming: # query: PBM binding z-score of entry CTACCAAGGTGAACAAGGTCGTTGGTTACTATTC
Outgoing: 1.87

Incoming: # query: PBM binding z-score of entry CCTAGGAGGCCAGGGTCACTCAAGCATTTCGCTT
Outgoing: 3.08

Incoming: # query: PBM binding z-score of entry CATACAGGATCAGCTAGGCCAGAGTAGGGACGGC
Outgoing: -0.0715
